Hey, just so you know, these numbers are from patent US20230141177A1.

biological target: AβO in the low molecular weight (LMW) fraction of pooled soluble human AD brain extract (~8 kDa to ~70 kDa) (human) (UniProt P05067); test: SPR, immobilized antibody, brain extract fraction at 100 µg/ml injected; Study 1
Quick reference for Binding to LMW (BRU) among some binders
Respond numerically; units are BRU and should not be typed.

A selection of reference data follows.
>  <binder>
parental antibody, PMN310 humanized antibody variant VH2/Vk5 (human IgG4 S241P / kappa) (antibody, V domains shown) VH: QVQLVQSGAEVKKPGASVKMSCKASGYSFTSYWINWVKQRPGQGLEWIGDVHPGRGVSTYNAKFKSRATLTLDTSISTAYMELSSLRSEDTAVYYCSRSHGNTYWFFDVWGQGTTVTVSS VL: DVLMTQSPLSLPVTLGQPASISCRSSQSIVHSNGNTYLEWYQQRPGQSPRLLIYKVSNRFSGVPDRFSGSGSGTDFTLKISRVEAEDVGVYYCFQGSHVPFTFGQGTKLEIKR

>  <obs-value>
27

$$$$
>  <binder>
Clone 5 (affinity matured VH with parental Vk, human IgG4 S241P / kappa) (antibody, V domains shown) VH: QVQLVQSGAEVKKPGASVKMSCKASGYSFTSYWINWVKQRPGQGLEWIGDVHPGRGVSTYNAKFKSRATLTLDTSISTAYMELSSLRSEDTAVYYCARGALSPYWFFDVWGQGTTVTVSS VL: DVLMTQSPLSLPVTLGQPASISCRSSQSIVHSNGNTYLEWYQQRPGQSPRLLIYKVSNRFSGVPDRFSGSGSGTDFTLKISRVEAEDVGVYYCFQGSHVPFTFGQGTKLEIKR

>  <obs-value>
15

$$$$
>  <binder>
Clone 4 (affinity matured VH with parental Vk, human IgG4 S241P / kappa) (antibody, V domains shown) VH: QVQLVQSGAEVKKPGASVKMSCKASGYSFTSYWINWVKQRPGQGLEWIGDVHPGRGVSTYNAKFKSRATLTLDTSISTAYMELSSLRSEDTAVYYCARVSPTGYWFFDVWGQGTTVTVSS VL: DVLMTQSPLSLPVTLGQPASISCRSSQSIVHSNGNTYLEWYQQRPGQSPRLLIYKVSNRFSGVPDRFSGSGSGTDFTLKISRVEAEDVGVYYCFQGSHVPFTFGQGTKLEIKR

>  <obs-value>
28

$$$$

// switching to the query binder
Problem: Value lookup for Binding to LMW (BRU); key = Clone 14 (affinity matured VH with parental Vk, human IgG4 S241P / kappa) (antibody, V domains shown) VH: QVQLVQSGAEVKKPGASVKMSCKASGYSFTSYWINWVKQRPGQGLEWIGDVHPGRGVSTYNAKFKSRATLTLDTSISTAYMELSSLRSEDTAVYYCAKSDASGYWFFDVWGQGTTVTVSS VL: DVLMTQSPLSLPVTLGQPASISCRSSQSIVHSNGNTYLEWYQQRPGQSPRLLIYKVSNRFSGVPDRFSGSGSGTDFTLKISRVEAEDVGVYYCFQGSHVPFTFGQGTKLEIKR
Result: 18
